B1: CDC25B (parent)
chain: ELKTFRLKTRSWAGERSRRELCSR

Variants of: B1
Assay: protein stability index of a GFP-peptide fusion (GPS, HEK-293T) (PSI 1-6); higher = more stable;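 note: lentivirally expressed fusions sorted by FACS into six bins by GFP to DsRed ratio, PSI derived from sequencing read proportions per bin multiplied by bin number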
Conditions: c terminus: a fixed tail appended
recorded.metric: protein stability index
Could you respond with only the numeric value?

residue.codes	endpoint.result
ELKTFVLKTRSWAGERSRRELCSR [R6V]	2.32
ELKTFRLKTRSWAGERSRRELRSR [C22R]	4.04
ELKTFRLKTRSWAGERSRRELCSM [R24M]	2.34
ELKTFRLKTRSWAGERSVRELCSR [R18V]	3.6
ELKCFRLKTRSWAGERSRRELCSR [T4C]	2.56
ELKTFRLKTRSWYGERSRRELCSR [A13Y]	2.22
ELKTDRLKTRSWAGERSRRELCSR [F5D]	4.08
RLKTFRLKTRSWAGERSRRELCSR [E1R]	3.03

Look up protein stability index for this variant: ELKTFRLKTRSWAPERSRRELCSR [G14P]
2.25

And ELKTFRLKTRSWAWERSRRELCSR [G14W] ?
3.23

Entry to check: ELKTFRLKTRSWAGERSRRELCIR [S23I]
2.95

And ELDTFRLKTRSWAGERSRRELCSR [K3D] ?
3.33
